TARGET_OF_ASSAY: KDM2B (FBXL10) (Homo sapiens)
Construct: KDM2B; BPS,; 1-650; Bac; purchased BPS Bioscience, US; host or cells: baculovirus system
PROTOCOL_NOTES: Histone lysine demethylase AlphaLISA assay, KDM2B
Type: biochemical
PROTOCOL_CONDITIONS: AlphaLISA, in vitro; read-out: HDME Inhibition KDM2B
OBSERVABLE: IC50

Consider the reported IC50 for these molecules:
[[record]]
molecule = "COc1ccc(O)c(CCNCc2cc(C(=O)O)cc(CO)n2)n1"
observable = "IC50"
observed_value = "> 10 µM"

[[record]]
molecule = "CCc1nnc(CNCc2cc(C(=O)O)cc(C)n2)n1Cc1cccc(C(C)O)c1 (stereo not drawn)"
observable = "IC50"
observed_value = "> 10 µM"


Now turn to the next molecule.
What IC50 value was documented for this molecule, CCC(C)c1cnc(CNCc2cc(C(=O)O)cc(C)n2)n1Cc1ccc(F)cc1 (stereo not drawn) ? > 10 µM

----------
# pIC50 values compiled below
TARGET_OF_ASSAY: KDM5B (PLU-1) (Homo sapiens)
Construct: BRIC; 1-809; E. coli; host or cells: E. coli
Sequence (Q9UGL1 1-809): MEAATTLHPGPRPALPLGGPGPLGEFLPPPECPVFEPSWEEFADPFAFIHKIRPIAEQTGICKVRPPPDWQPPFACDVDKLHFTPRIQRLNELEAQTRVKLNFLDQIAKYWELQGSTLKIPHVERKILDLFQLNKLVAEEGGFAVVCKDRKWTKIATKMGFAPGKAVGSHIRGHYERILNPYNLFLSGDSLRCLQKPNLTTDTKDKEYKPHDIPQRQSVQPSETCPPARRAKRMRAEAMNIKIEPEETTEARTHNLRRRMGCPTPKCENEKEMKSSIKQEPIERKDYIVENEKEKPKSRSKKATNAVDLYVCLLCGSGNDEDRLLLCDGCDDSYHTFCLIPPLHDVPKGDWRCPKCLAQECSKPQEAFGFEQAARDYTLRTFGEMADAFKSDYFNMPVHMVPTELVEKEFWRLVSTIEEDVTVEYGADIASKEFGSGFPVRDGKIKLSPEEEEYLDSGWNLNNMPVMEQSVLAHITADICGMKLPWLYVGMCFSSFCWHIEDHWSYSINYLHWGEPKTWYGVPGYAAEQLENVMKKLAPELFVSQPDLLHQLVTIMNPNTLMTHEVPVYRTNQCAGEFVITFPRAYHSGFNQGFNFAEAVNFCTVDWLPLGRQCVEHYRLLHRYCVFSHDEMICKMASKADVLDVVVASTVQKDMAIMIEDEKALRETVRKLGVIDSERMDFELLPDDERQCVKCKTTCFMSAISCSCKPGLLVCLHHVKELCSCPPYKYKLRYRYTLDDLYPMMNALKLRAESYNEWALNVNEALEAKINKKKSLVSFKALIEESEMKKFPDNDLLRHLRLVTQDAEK
PROTOCOL_NOTES: Histone lysine demethylase AlphaLISA assay, KDM5B
Format: biochemical
PROTOCOL_CONDITIONS: AlphaLISA, in vitro; read-out: HDME Inhibition KDM5B
pIC50: −log10 of the molar value.

Consider the reported pIC50 for these molecules:
[[record]]
molecule = "CCN(CCN(C)C)C(=O)CNCc1cc(C(=O)O)cc(CO)n1"
target_of_assay = "KDM5B (PLU-1) (Homo sapiens)"
observed_value = 7.70

[[record]]
molecule = "CCc1nnc(CNCc2cc(C(=O)O)cc(C)n2)n1CCCc1ccccc1"
target_of_assay = "KDM5B (PLU-1) (Homo sapiens)"
observed_value = "< 5.00"

[[record]]
molecule = "Cc1cc(OCc2ccccc2)c(CCNCc2cc(C(=O)O)cc(C)n2)nn1"
target_of_assay = "KDM5B (PLU-1) (Homo sapiens)"
observed_value = "< 5.00"

[[record]]
molecule = "Cc1cc(C(=O)O)cc(CNCc2ncc(CCC(N)=O)n2Cc2ccc(F)cc2)n1"
target_of_assay = "KDM5B (PLU-1) (Homo sapiens)"
observed_value = "< 5.00"

[[record]]
molecule = "COc1ccc(CCn2ccnc2CNCc2cc(C(=O)O)cc(C)n2)cc1OC"
target_of_assay = "KDM5B (PLU-1) (Homo sapiens)"
observed_value = "< 5.00"

[[record]]
molecule = "Cc1cc(C(=O)O)cc(CNCc2nc3c(n2Cc2ccc(F)cc2)CCC3)n1"
target_of_assay = "KDM5B (PLU-1) (Homo sapiens)"
observed_value = "< 5.00"

[[record]]
molecule = "CC#CCC(c1ccc(F)cc1)n1ccnc1CNCc1cc(C(=O)O)cc(C)n1 (stereo not shown)"
target_of_assay = "KDM5B (PLU-1) (Homo sapiens)"
observed_value = "< 5.00"

[[record]]
molecule = "CSc1nnc(CNCc2cc(C(=O)O)cc(C)n2)n1Cc1ccc(F)cc1"
target_of_assay = "KDM5B (PLU-1) (Homo sapiens)"
observed_value = "< 5.00"


What pIC50 value was documented for this molecule, "COc1ccc(CCn2ccnc2CNCc2cc(C(=O)O)cc(C)n2)cc1" ? < 5.00

What pIC50 value was documented for this molecule, Cc1cc(C(=O)O)cc(CNC2CCCc3cccnc32)n1 (stereo not shown) ? 6.46

What pIC50 value was documented for this molecule, "CCN(CCN(C)C)C(=O)CNCc1cc(C(=O)O)cc(C)n1" ? 8.10

What pIC50 value was documented for this molecule, "Cc1cc(C(=O)O)cc(CN[C@H](CO)CC(C)C)n1" ? < 5.00

What pIC50 value was documented for this molecule, "NCc1cc(C(=O)O)cc(CN)n1" ? < 5.00

What pIC50 value was documented for this molecule, "Cc1cc(C(=O)O)cc(CNCc2nccn2CCC(C)C)n1" ? < 5.00

What pIC50 value was documented for this molecule, "CCCCCCCc1cccnc1CCNCc1cc(C(=O)O)cc(C)n1" ? < 5.00

What pIC50 value was documented for this molecule, "COC(=O)c1cn(Cc2ccc(F)cc2)c(CNCc2cc(C(=O)O)cc(CO)n2)n1" ? < 5.00

What pIC50 value was documented for this molecule, "Cc1cc(C(=O)O)cc(CNCCc2ncccc2Br)n1" ? 5.26

What pIC50 value was documented for this molecule, "CCc1cc(C(=O)O)cc(CNCc2nccn2Cc2ccc(F)cc2)n1" ? < 5.00

----------
TARGET_OF_ASSAY: KDM2B (FBXL10) (Homo sapiens, UniProt Q8NHM5)
Construct: KDM2B; BPS,; 1-650; Bac; purchased BPS Bioscience, US; host or cells: baculovirus system
Sequence (Q8NHM5 1-650): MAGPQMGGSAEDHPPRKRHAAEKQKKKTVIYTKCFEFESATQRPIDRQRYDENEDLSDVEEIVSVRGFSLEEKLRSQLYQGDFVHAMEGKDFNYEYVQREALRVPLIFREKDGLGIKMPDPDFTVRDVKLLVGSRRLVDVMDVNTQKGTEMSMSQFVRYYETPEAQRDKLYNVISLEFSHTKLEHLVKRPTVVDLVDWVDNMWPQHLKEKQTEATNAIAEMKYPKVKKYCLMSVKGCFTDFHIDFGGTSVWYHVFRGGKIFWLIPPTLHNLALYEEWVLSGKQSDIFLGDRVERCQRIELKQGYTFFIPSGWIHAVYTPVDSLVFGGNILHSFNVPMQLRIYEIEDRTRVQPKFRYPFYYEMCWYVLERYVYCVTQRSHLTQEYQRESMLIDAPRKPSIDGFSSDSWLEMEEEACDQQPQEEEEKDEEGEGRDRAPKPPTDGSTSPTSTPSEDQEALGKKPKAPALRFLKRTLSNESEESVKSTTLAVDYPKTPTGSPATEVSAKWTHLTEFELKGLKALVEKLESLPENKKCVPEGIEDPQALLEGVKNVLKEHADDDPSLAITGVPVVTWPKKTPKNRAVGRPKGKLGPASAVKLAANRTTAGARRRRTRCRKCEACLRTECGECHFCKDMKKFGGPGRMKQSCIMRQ
PROTOCOL_NOTES: Histone lysine demethylase AlphaLISA assay, KDM2B
Assay type: biochemical
PROTOCOL_CONDITIONS: AlphaLISA, in vitro; read-out: HDME Inhibition KDM2B
pIC50: −log10 of the molar value.
OBSERVABLE: pIC50

Consider the reported pIC50 for these molecules:
[[record]]
molecule = "Cc1cc(C(=O)O)cc(CNCc2nccn2CCc2ccccc2)n1"
observed_value = 5.38

[[record]]
molecule = "Cc1cc(C(=O)O)cc(CNCc2nncn2CCc2cc(Cl)cc(Cl)c2)n1"
observed_value = 5.55


[P] Cc1cc(C(=O)O)cc(CNCc2nnc(CN(C)C)n2Cc2ccc(F)cc2)n1
[Q] CCCc1nnc(CNCc2cc(C(=O)O)cc(CO)n2)n1Cc1ccc(F)cc1
[R] COc1ccc(OCc2ccccc2)c(CNCc2cc(C(=O)O)cc(CO)n2)n1
List by increasing pIC50. // rank by listing labels in the order requested P, Q, R
(P: 5.70, Q: 6.60, R: 7.49)

[a] COCc1cc(C(=O)O)cc(CNCc2nccn2Cc2ccc(F)cc2)n1
[b] C/C=C/c1cc(C(=O)O)cc(CNCc2nccn2Cc2ccc(F)cc2)n1
[c] CSc1cnc(CNCc2cc(C(=O)O)cc(C)n2)n1Cc1ccc(F)cc1
[d] O=Cc1cn(Cc2ccc(F)cc2)c(CNCc2cc(C(=O)O)cc(CO)n2)n1
Rank entries according to their pIC50, from the largest number down. // rank by listing labels in the order requested c, d, b, a

[1] Cc1cc(C(=O)O)cc(CNCCc2ncccc2C2=CCCC2)n1
[2] C=CCn1ccnc1CNCc1cc(C(=O)O)cc(C)n1
Which value of pIC50 is greater, the one for 1 or the one for 2 ? The response must carry the label of the picked entry. 2
(2: 6.23, 1: 5.56)

[P] Cc1cc(C(=O)O)cc(CNCc2nccn2CCc2cncnc2)n1
[Q] Cc1cc(OCc2ccccc2)c(CCNCc2cc(C(=O)O)cc(C)n2)nn1
[R] Cc1cc(C(=O)O)cc(CNCc2ncc(C(C)C)n2Cc2ccc(F)cc2)n1
[S] Cc1nnc(CNCc2cc(C(=O)O)cc(CO)n2)n1CCCc1ccccc1
[T] CC#CCC(c1ccc(F)cc1)n1ccnc1CNCc1cc(C(=O)O)cc(C)n1 (centres unmarked)
Rank entries according to their pIC50, from the largest number down. // rank by listing labels in the order requested S, T, R, P, Q
(S: 7.47, T: 7.21, R: 6.82, P: 6.25, Q: 5.85)

----------
TARGET_OF_ASSAY: PHF8 (KDM7) (Homo sapiens, UniProt Q9UPP1)
Construct: KDM7 (PHF8); BRIC; 1-1322; Bac
Sequence (Q9UPP1 37-440 limits assumed): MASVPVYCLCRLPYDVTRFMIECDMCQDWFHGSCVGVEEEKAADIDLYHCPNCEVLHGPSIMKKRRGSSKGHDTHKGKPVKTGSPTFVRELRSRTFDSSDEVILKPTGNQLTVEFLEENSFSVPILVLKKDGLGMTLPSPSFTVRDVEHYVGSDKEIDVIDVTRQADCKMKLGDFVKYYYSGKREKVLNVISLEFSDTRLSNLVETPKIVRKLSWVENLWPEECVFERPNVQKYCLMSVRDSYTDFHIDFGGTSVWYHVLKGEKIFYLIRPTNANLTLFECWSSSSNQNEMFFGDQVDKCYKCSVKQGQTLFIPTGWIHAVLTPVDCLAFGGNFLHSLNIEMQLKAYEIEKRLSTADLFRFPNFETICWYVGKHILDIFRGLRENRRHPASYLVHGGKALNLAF
PROTOCOL_NOTES: Histone lysine demethylase AlphaLISA assay, PHF8
Type: biochemical
PROTOCOL_CONDITIONS: AlphaLISA, in vitro; read-out: HDME Inhibition PHF8
pIC50: −log10 of the molar value.
OBSERVABLE: pIC50

[[record]]
compound = "O=C(O)c1cc(CO)nc(CNCc2nncn2Cc2ccc(F)cc2)c1 [Compound 62]"
observed_value = 6.51

[[record]]
compound = "CCc1nnc(CNCc2cc(C(=O)O)cc(C)n2)n1C/C=C/c1ccccc1 [Compound 68]"
observed_value = 5.75

[[record]]
compound = "Cc1cc(C(=O)O)cc(CNCc2nnc(C)n2Cc2ccc(Cl)c(Cl)c2)n1 [Compound 57]"
observed_value = 5.90


[a] Cc1cc(C(=O)O)cc(CNC2CCCc3cccnc32)n1 (centres unmarked) [Compound 19]
[b] Cc1cc(C(=O)O)cc(CNCc2nnc(C(C)O)n2Cc2ccc(F)cc2)n1 (centres unmarked) [Compound 85]
[c] O=C(O)c1cc(CO)nc(CNCc2nnc(-c3cccs3)n2CCCc2ccccc2)c1 [Compound 95]
[d] CCc1cnc(CNCc2cc(C(=O)O)cc(C)n2)n1Cc1ccc(F)cc1 [Compound 4]
List by increasing pIC50. // rank by listing labels in the order requested c, b, a, d

[I] CC#CCC(c1ccc(F)cc1)n1ccnc1CNCc1cc(C(=O)O)cc(C)n1 (centres unmarked) [Compound 96]
[II] CC#Cc1cc(C(=O)O)cc(CNCc2nccn2Cc2ccc(F)cc2)n1 [Compound 6]
Would you mind telling me which has the lower recorded pIC50 between I and II ? The response must carry the label of the picked entry. I

Reference source for all entries: patent US9802941B2
